This collection of values is drawn from the supplement of paper PMC8882468.

Test system: HCI-024 (organoid from a breast cancer xenograft)
Assay: CTG-3D luminescence at 96 h relative to day-0 seeding control (ratio to day 0); higher = more growth / less cytotoxicity; PDxO 3D drug screen (set 2), 96 h, CTG-3D normalised to day-0 seeding control.
Conditions: 100 µM; days in culture: 202
Recorded CTG-3D luminescence at 96 h values for a group of compounds are listed next.

Use these answered entries as a reference point.
- smiles-entry: "CC(=O)O[C@@]12CO[C@@H]1C[C@H](O)[C@@]1(C)C(=O)[C@H](O)C3=C(C)[C@@H](OC(=O)[C@H](O)[C@@H](NC(=O)OC(C)(C)C)c4ccccc4)C[C@@](O)([C@@H](OC(=O)c4ccccc4)[C@H]21)C3(C)C"
  measured-parameter: "CTG-3D luminescence at 96 h"
  experimental-value: 0.0987
- smiles-entry: "O=C(c1cc(Cc2n[nH]c(=O)c3ccccc23)ccc1F)N1CCN(C(=O)C2CC2)CC1"
  measured-parameter: "CTG-3D luminescence at 96 h"
  experimental-value: 0.38
- smiles-entry: "CCOc1ccn(-c2ccc(F)cc2)c(=O)c1C(=O)Nc1ccc(Oc2ccnc(N)c2Cl)c(F)c1"
  measured-parameter: "CTG-3D luminescence at 96 h"
  experimental-value: 0.658
- smiles-entry: "CO[C@H]1C[C@@H]2CC[C@@H](C)[C@@](O)(O2)C(=O)C(=O)N2CCCC[C@H]2C(=O)O[C@H]([C@H](C)C[C@@H]2CC[C@@H](O)[C@H](OC)C2)CC(=O)[C@H](C)/C=C(\\C)[C@@H](O)[C@@H](OC)C(=O)[C@H](C)C[C@H](C)/C=C/C=C/C=C/1C"
  measured-parameter: "CTG-3D luminescence at 96 h"
  experimental-value: 0.00983

Let's switch to this compound now.
In: Tell me measured CTG-3D luminescence at 96 h for `CO[C@H]1C[C@@H]2CC[C@@H](C)[C@@](O)(O2)C(=O)C(=O)N2CCCC[C@H]2C(=O)O[C@H]([C@H](C)C[C@@H]2CC[C@@H](OCCO)[C@H](OC)C2)CC(=O)[C@H](C)/C=C(\C)[C@@H](O)[C@@H](OC)C(=O)[C@H](C)C[C@H](C)/C=C/C=C/C=C/1C` please.
Out: 0.00395

====

The following compounds are listed with their measured CTG-3D luminescence at 96 h values.
Test system: HCI-011.E2 (organoid from an ER-positive breast cancer xenograft)
Assay: CTG-3D luminescence at 96 h relative to day-0 seeding control (ratio to day 0); higher = more growth / less cytotoxicity; PDxO 3D drug screen (set 2), 96 h, CTG-3D normalised to day-0 seeding control.
Conditions: 1 µM; days in culture: 74
Lab note: record the figure alone, no unit after it.

Examples from the recorded data:
- smiles-entry: "Nc1cc(C(F)(F)F)c(-c2cc(N3CCOCC3)nc(N3CCOCC3)n2)cn1"
  CTG-3D luminescence at 96 h: 0.711
- smiles-entry: "CC(=O)c1c(C)c2cnc(Nc3ccc(N4CCNCC4)cn3)nc2n(C2CCCC2)c1=O"
  CTG-3D luminescence at 96 h: 1.74

In: Tell me CTG-3D luminescence at 96 h reported for `CS(=O)(=O)CCNCc1ccc(-c2ccc3ncnc(Nc4ccc(OCc5cccc(F)c5)c(Cl)c4)c3c2)o1`
Out: 1.66

In: Determine from records and report CTG-3D luminescence at 96 h for `CO[C@H]1C[C@@H]2CC[C@@H](C)[C@@](O)(O2)C(=O)C(=O)N2CCCC[C@H]2C(=O)O[C@H]([C@H](C)C[C@@H]2CC[C@@H](O)[C@H](OC)C2)CC(=O)[C@H](C)/C=C(\C)[C@@H](O)[C@@H](OC)C(=O)[C@H](C)C[C@H](C)/C=C/C=C/C=C/1C`
Out: 0.784
